The reported numbers originate from patent US20240317847A1.

Target: T1, human IL-11 (human, UniProt P20809 22-199)
T1 sequence: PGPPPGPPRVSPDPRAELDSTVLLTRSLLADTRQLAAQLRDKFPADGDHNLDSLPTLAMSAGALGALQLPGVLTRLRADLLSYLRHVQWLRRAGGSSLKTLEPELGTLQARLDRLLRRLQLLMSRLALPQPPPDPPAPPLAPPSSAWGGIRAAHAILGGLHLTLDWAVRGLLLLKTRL
Test: cell-based or functional assay
Quantity: RGA IC50 (nM)
Quick note: give the figure in nM, leave out the unit.

Some entries whose results are on file:
>  <Binder>
TPP-26308 (antibody, V domains shown) VH: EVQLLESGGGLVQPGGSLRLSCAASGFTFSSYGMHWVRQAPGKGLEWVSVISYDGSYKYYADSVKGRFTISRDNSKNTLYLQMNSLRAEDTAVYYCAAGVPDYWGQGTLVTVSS VL: QSVLTQPPSASGTPGQRVTISCTGSSSNIGAGYDVHWYQQLPGTAPKLLIYSNNERPSGVPDRFSGSKSGTSASLAISGLRSEDEADYYCAAWDVSLNGPVFGGGTKLTVL

>  <RGA IC50 [nM]>
5.9

$$$$
>  <Binder>
TPP-26318 (antibody, V domains shown) VH: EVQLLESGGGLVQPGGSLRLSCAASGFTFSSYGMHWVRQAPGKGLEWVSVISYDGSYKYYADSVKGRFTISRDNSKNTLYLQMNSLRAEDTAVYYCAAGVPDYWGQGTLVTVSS VL: QSVLTQPPSASGTPGQRVTISCTGSSSNIGAGYFVHWYQQLPGTAPKLLIYSNNERPSGVPDRFSGSKSGTSASLAISGLRSEDEADYYCAAWDDSLNGPVFGGGTKLTVL

>  <RGA IC50 [nM]>
2.4

$$$$
>  <Binder>
TPP-26325 (antibody, V domains shown) VH: EVQLLESGGGLVQPGGSLRLSCAASGFTFSWYGMHWVRQAPGKGLEWVSVISYDGSYKYYADSVKGRFTISRDNSKNTLYLQMNSLRAEDTAVYYCAAGVPDYWGQGTLVTVSS VL: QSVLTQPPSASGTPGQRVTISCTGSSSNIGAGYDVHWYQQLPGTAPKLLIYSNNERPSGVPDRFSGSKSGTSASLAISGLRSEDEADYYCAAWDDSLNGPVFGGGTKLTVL

>  <RGA IC50 [nM]>
1.7

$$$$
>  <Binder>
TPP-26290 (antibody, V domains shown) VH: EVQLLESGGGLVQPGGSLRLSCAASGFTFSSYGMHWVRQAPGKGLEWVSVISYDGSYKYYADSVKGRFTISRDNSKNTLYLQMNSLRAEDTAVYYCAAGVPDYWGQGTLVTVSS VL: QSVLTQPPSASGTPGQRVTISCTGSSSNIGAGMDVHWYQQLPGTAPKLLIYSNNERPSGVPDRFSGSKSGTSASLAISGLRSEDEADYYCAAWDDSLNGPVFGGGTKLTVL

>  <RGA IC50 [nM]>
4.7

$$$$

Pending binder:
TPP-26314 (antibody, V domains shown) VH: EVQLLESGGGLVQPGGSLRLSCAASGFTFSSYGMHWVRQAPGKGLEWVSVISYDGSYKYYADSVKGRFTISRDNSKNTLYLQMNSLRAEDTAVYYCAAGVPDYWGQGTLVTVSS VL: QSVLTQPPSASGTPGQRVTISCTGSSSNIGAGYDVHWYQQLPGTAPKLLIYSNNERPSGVPDRFSGSKSGTSASLAISGLRSEDEADYYCAAWDWSLNGPVFGGGTKLTVL has a reported RGA IC50 of 1.1
